# ASSAYED TARGET: ERR1 (also known as ERR-α or ERR-1) (Homo sapiens)
# Construct: the ^6His-tagged-ERR1 LBD
# Sequence (P11474 193-421 limits assumed): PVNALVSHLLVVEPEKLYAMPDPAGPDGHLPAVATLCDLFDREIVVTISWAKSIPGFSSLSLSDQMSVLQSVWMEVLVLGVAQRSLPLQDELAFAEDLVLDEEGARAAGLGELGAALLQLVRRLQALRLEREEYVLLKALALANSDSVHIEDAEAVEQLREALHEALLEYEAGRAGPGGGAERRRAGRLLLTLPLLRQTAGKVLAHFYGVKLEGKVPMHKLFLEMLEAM
# PROTOCOL: TR-FRET assay: disruption of co-activator peptide binding to ERR1 LBD
# APPLIED CONDITIONS: 6His-tagged ERR1 LBD 6 nM, GST-SRC-2 peptide 6 nM, 25° C., 4-18 hours; average of 3 independent experiments
pEC50: −log10 of the molar value.

MOLECULE	ASSAYED TARGET	pEC50
CN(CC(O)CO)C1=NC(=O)/C(=C/c2ccc(Oc3ccc(C#N)cc3C(F)(F)F)c(F)c2)S1 (stereo not shown)	ERR1 (also known as ERR-α or ERR-1) (Homo sapiens)	7.92
COc1cc(/C=C2\SC(N3CCNC(=O)C3)=NC2=O)ccc1Oc1ccc(C#N)cc1C(F)(F)F	ERR1 (also known as ERR-α or ERR-1) (Homo sapiens)	8.05
COc1cc(/C=C2\SC(NCCN3CCCC3=O)=NC2=O)ccc1Oc1ccc(C#N)cc1C(F)(F)F	ERR1 (also known as ERR-α or ERR-1) (Homo sapiens)	8.10
COc1cc(/C=C2\SC(NCCCN(C)C)=NC2=O)ccc1Oc1ccc(C#N)cc1C(F)(F)F	ERR1 (also known as ERR-α or ERR-1) (Homo sapiens)	7.89
COc1cc(/C=C2\SC(NCc3ccccn3)=NC2=O)ccc1Oc1ccc(C#N)cc1C(F)(F)F	ERR1 (also known as ERR-α or ERR-1) (Homo sapiens)	7.54
CC(C)c1ccccc1Oc1ccc(/C=C2\SC(N3CC(C(=O)O)C3)=NC2=O)cc1	ERR1 (also known as ERR-α or ERR-1) (Homo sapiens)	7.68
COc1cc(/C=C2\SC(N(C)CC(O)CO)=NC2=O)ccc1Oc1ccc(C#N)cc1Cl (stereo not shown)	ERR1 (also known as ERR-α or ERR-1) (Homo sapiens)	7.05
COc1cc(/C=C2\SC(N3CCNC(=O)C3)=NC2=O)ccc1Oc1ccc(C#N)cc1Cl	ERR1 (also known as ERR-α or ERR-1) (Homo sapiens)	7.36
N#Cc1ccc(Oc2ccc(/C=C3\SC(NC4CCN(CCO)CC4)=NC3=O)cc2F)c(C(F)(F)F)c1	ERR1 (also known as ERR-α or ERR-1) (Homo sapiens)	7.59
O=C1CN(C2=NC(=O)/C(=C/c3ccc(Oc4ccc(Cl)cc4C(F)(F)F)c(F)c3)S2)CCN1	ERR1 (also known as ERR-α or ERR-1) (Homo sapiens)	8.40
COc1cc(/C=C2\SC(N3CCNC(=O)C3)=NC2=O)ccc1Oc1ccc(C(F)(F)F)cc1C(F)(F)F	ERR1 (also known as ERR-α or ERR-1) (Homo sapiens)	6.85
CN(C)CCCNC1=NC(=O)/C(=C/c2ccc(Oc3ccc(C#N)cc3C(F)(F)F)c(F)c2)S1	ERR1 (also known as ERR-α or ERR-1) (Homo sapiens)	8.05
COc1cc(/C=C2\SC(NCCN3CCCC3=O)=NC2=O)ccc1Oc1ccc(C#N)cc1Cl	ERR1 (also known as ERR-α or ERR-1) (Homo sapiens)	7.12
COc1cc(/C=C2\SC(NCc3ccsc3)=NC2=O)ccc1Oc1ccc(C#N)cc1C(F)(F)F	ERR1 (also known as ERR-α or ERR-1) (Homo sapiens)	7.60
COc1cc(/C=C2\SC(N3CCCC(O)C3)=NC2=O)ccc1Oc1ccc(C(F)(F)F)cc1C(F)(F)F (stereo not shown)	ERR1 (also known as ERR-α or ERR-1) (Homo sapiens)	7.62
COc1cc(/C=C2\SC(NCCC(=O)N3CCOCC3)=NC2=O)ccc1Oc1ccc(C#N)cc1C(F)(F)F	ERR1 (also known as ERR-α or ERR-1) (Homo sapiens)	7.89
